Assignment: determine reported % viability under drug for the given sequences.
Test system: NCI-H441
assayDetails: % viability under drug (72 h drug + 72 h recovery), miRNA mimic relative to NTC in DMSO; higher = more surviving cells
assaySetup: drug used in drug arm: carboplatin 2.5 uM; treatment: drug
Write the answer as a number in %, unit excluded.

QUERY: Could you tell me which % viability under drug is on file for "CAAAAGUAAUUGUGGAUUUUGU" ?
RESULT: 13.6

QUERY: Could you tell me which % viability under drug is on file for "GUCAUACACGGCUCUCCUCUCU" ?
RESULT: 3.92

QUERY: Could you tell me which % viability under drug is on file for "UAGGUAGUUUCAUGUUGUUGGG" ?
RESULT: 6.39

QUERY: Could you tell me which % viability under drug is on file for "UCUACAAAGGAAAGCGCUUUCU" ?
RESULT: 12.8

QUERY: Could you tell me which % viability under drug is on file for "GAAUGUUGCUCGGUGAACCCCU" ?
RESULT: 4.29

QUERY: Could you tell me which % viability under drug is on file for "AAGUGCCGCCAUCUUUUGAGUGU" ?
RESULT: 7.71

QUERY: Could you tell me which % viability under drug is on file for "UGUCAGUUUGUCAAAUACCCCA" ?
RESULT: 5.55

QUERY: Could you tell me which % viability under drug is on file for "GAGCCAGUUGGACAGGAGC" ?
RESULT: 18.1

QUERY: Could you tell me which % viability under drug is on file for "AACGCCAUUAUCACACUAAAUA" ?
RESULT: 10.2

QUERY: Could you tell me which % viability under drug is on file for "CAAUGUUUCCACAGUGCAUCAC" ?
RESULT: 4.19

QUERY: Could you tell me which % viability under drug is on file for "ACAGUAGAGGGAGGAAUCGCAG" ?
RESULT: 38.6

QUERY: Could you tell me which % viability under drug is on file for "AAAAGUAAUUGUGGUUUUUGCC" ?
RESULT: 24.2

QUERY: Could you tell me which % viability under drug is on file for "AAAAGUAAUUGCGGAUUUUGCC" ?
RESULT: 29.7

QUERY: Could you tell me which % viability under drug is on file for "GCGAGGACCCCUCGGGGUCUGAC" ?
RESULT: 7.07

QUERY: Could you tell me which % viability under drug is on file for "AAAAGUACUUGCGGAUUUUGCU" ?
RESULT: 11.3

QUERY: Could you tell me which % viability under drug is on file for "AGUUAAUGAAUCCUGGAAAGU" ?
RESULT: 14.3

====

System: MKN-45
assayDetails: % viability in DMSO, miRNA mimic relative to NTC in DMSO; higher = less cytotoxic
assaySetup: drug used in drug arm: crizotinib 1 uM; treatment: DMSO
Decision: % viability in DMSO beneath 50% gives yes; % viability in DMSO meeting or exceeding 50% gives no.

QUERY: Consider the sequence "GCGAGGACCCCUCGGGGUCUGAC" . Is its % viability in DMSO strictly less than 50%?
RESULT: no

QUERY: Consider the sequence "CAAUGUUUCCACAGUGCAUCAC" . Is its % viability in DMSO strictly less than 50%?
RESULT: yes

QUERY: Consider the sequence "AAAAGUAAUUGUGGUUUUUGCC" . Is its % viability in DMSO strictly less than 50%?
RESULT: no

QUERY: Consider the sequence "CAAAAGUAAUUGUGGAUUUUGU" . Is its % viability in DMSO strictly less than 50%?
RESULT: yes

QUERY: Consider the sequence "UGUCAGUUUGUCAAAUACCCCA" . Is its % viability in DMSO strictly less than 50%?
RESULT: no

QUERY: Consider the sequence "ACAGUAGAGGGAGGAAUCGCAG" . Is its % viability in DMSO strictly less than 50%?
RESULT: yes

QUERY: Consider the sequence "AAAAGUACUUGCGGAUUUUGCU" . Is its % viability in DMSO strictly less than 50%?
RESULT: no

QUERY: Consider the sequence "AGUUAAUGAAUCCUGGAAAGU" . Is its % viability in DMSO strictly less than 50%?
RESULT: yes

QUERY: Consider the sequence "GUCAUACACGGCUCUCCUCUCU" . Is its % viability in DMSO strictly less than 50%?
RESULT: yes

QUERY: Consider the sequence "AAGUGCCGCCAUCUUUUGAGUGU" . Is its % viability in DMSO strictly less than 50%?
RESULT: yes

QUERY: Consider the sequence "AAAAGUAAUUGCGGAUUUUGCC" . Is its % viability in DMSO strictly less than 50%?
RESULT: no

QUERY: Consider the sequence "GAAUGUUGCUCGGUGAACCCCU" . Is its % viability in DMSO strictly less than 50%?
RESULT: yes

QUERY: Consider the sequence "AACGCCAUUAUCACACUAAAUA" . Is its % viability in DMSO strictly less than 50%?
RESULT: yes

QUERY: Consider the sequence "GAGCCAGUUGGACAGGAGC" . Is its % viability in DMSO strictly less than 50%?
RESULT: no
